System: human recombinant serotonin (5-Hydroxytryptamine) 5-HT2A receptor (Homo sapiens, UniProt P28223)
Construct: expressed in transfected cells; host or cells: CHO-K1 cells
Sequence (P28223 whole entry): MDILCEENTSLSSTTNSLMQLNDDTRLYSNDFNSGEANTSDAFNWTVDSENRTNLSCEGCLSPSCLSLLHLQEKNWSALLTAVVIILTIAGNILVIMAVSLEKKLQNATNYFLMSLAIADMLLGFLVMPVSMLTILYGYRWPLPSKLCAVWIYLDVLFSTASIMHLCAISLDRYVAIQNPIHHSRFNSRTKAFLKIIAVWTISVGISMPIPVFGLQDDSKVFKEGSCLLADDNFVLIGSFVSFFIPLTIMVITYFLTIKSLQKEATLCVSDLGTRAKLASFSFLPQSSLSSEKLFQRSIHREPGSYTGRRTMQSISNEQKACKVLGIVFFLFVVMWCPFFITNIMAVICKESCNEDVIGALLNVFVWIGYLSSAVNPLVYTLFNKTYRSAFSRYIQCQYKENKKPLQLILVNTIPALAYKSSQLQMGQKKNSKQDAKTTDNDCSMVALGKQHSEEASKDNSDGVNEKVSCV
Procedure details: Serotonin 5-HT2A radioligand binding ([3H]Ketanserin)
Protocol conditions: compound at 1 μM; CHO-K1 cells; read-out: Serotonin (1 μM) 5-HT2A, percent inhibition of specific binding
Returns one of true (1) or false (0); true (1) when inhibition at 1 µM is >= 80%.

Study these solved cases before continuing.
input: Hi team, for CCOC(=O)CCCn1c2c(c3cc(C)ccc31)CN(C)CC2 , is the recorded inhibition at 1 µM at or above 80%?
output: true (1)

input: Hi team, for Cc1ccc2c(c1)c1c(n2CC#N)CCN(C)C1 , is the recorded inhibition at 1 µM at or above 80%?
output: false (0)

input: Hi team, for CC(C)OC(=O)CCn1c2c(c3cc(Cl)ccc31)CN(C)CC2 , is the recorded inhibition at 1 µM at or above 80%?
output: true (1)

input: Hi team, for CN1CCc2c(c3cc(Cl)ccc3n2CCC(=O)OCC2CCCCC2)C1 , is the recorded inhibition at 1 µM at or above 80%?
output: true (1)

input: Hi team, for CCNC(=O)CCn1c2c(c3cc(C)ccc31)CN(C)CC2 , is the recorded inhibition at 1 µM at or above 80%?
output: false (0)

Continuing:
input: Hi team, for CN1CCc2c(c3cc(Cl)ccc3n2CCC(=O)OCc2ccccc2)C1 , is the recorded inhibition at 1 µM at or above 80%?
output: true (1)

input: Hi team, for C#CCn1c2c(c3cc(C)ccc31)CN(C)CC2 , is the recorded inhibition at 1 µM at or above 80%?
output: true (1)

input: Hi team, for Cc1ccc2c(c1)c1c(n2CCC(=O)NC2CCCCC2)CCN(C)C1 , is the recorded inhibition at 1 µM at or above 80%?
output: false (0)

input: Hi team, for Cc1ccc2c(c1)c1c(n2CCC(=O)Nc2ccccc2)CCN(C)C1 , is the recorded inhibition at 1 µM at or above 80%?
output: true (1)

input: Hi team, for Cc1ccc2c(c1)c1c(n2CC(=O)NCC2CCCCC2)CCN(C)C1 , is the recorded inhibition at 1 µM at or above 80%?
output: true (1)

---

System: human recombinant adrenergic α1D receptor (Homo sapiens, UniProt P25100)
Construct: expressed in transfected cells; host or cells: HEK-293 cells
Procedure details: Adrenergic α1D radioligand binding ([3H]Prozosin)
Protocol conditions: compound at 1 μM; HEK-293 cells; read-out: Adrenergic (1 μM) α1D, percent inhibition of specific binding
Procedure: To evaluate in radioligand binding assays the activity of compounds of the invention, human recombinant adrenergic α1D receptor expressed in human embryonic kidney (HEK-293) cells (Kenny, B. A. et al. Br. J. Pharmacol. 115(6):981, 1995) in a 50 mM Tris-HCl buffer, pH 7.4, was used. Compounds of invention were incubated with 0.6 nM [^3H]Prozosin for 60 minutes at 25° C. […] Receptor proteins were filtered and washed, the filters were then counted to determine [^3H]Prozosin specifically bound. […]
Reported property: inhibition at 1 µM (%)
Give your result in % as a bare value.

input: Fill in the recorded inhibition at 1 µM for this molecule, with human recombinant adrenergic α1D receptor (Homo sapiens, UniProt P25100) as test system: Cc1ccc2c(c1)c1c(n2CC(=O)NC(C)(C)C)CCN(C)C1
output: -4

input: Fill in the recorded inhibition at 1 µM for this molecule, with human recombinant adrenergic α1D receptor (Homo sapiens, UniProt P25100) as test system: CN1CCc2c(c3cc(Cl)ccc3n2CCC#N)C1
output: 74

input: Fill in the recorded inhibition at 1 µM for this molecule, with human recombinant adrenergic α1D receptor (Homo sapiens, UniProt P25100) as test system: CN1CCc2c(c3cc(Cl)ccc3n2CCC(=O)OC2CCCC2)C1
output: 88

Continuing:
input: Fill in the recorded inhibition at 1 µM for this molecule, with human recombinant adrenergic α1D receptor (Homo sapiens, UniProt P25100) as test system: CN1CCc2c(c3cc(Cl)ccc3n2CC(=O)O)C1
output: 10

input: Fill in the recorded inhibition at 1 µM for this molecule, with human recombinant adrenergic α1D receptor (Homo sapiens, UniProt P25100) as test system: Cc1ccc2c(c1)c1c(n2CCC(=O)NCc2ccccc2)CCN(C)C1
output: 56

input: Fill in the recorded inhibition at 1 µM for this molecule, with human recombinant adrenergic α1D receptor (Homo sapiens, UniProt P25100) as test system: Cc1ccc2c(c1)c1c(n2CCC(=O)Nc2ccc(F)cc2)CCN(C)C1
output: 80

input: Fill in the recorded inhibition at 1 µM for this molecule, with human recombinant adrenergic α1D receptor (Homo sapiens, UniProt P25100) as test system: Cc1ccc2c(c1)c1c(n2CC(=O)Nc2ccc(F)cc2)CCN(C)C1
output: 29

input: Fill in the recorded inhibition at 1 µM for this molecule, with human recombinant adrenergic α1D receptor (Homo sapiens, UniProt P25100) as test system: CCOC(=O)CCn1c2c(c3cc(C)ccc31)CN(C)CC2
output: 54

input: Fill in the recorded inhibition at 1 µM for this molecule, with human recombinant adrenergic α1D receptor (Homo sapiens, UniProt P25100) as test system: Cc1ccc2c(c1)c1c(n2CCNC(=O)c2ccc(F)cc2)CCN(C)C1
output: 76

input: Fill in the recorded inhibition at 1 µM for this molecule, with human recombinant adrenergic α1D receptor (Homo sapiens, UniProt P25100) as test system: CCOC(=O)CCCn1c2c(c3cc(C)ccc31)CN(C)CC2
output: 70

input: Fill in the recorded inhibition at 1 µM for this molecule, with human recombinant adrenergic α1D receptor (Homo sapiens, UniProt P25100) as test system: Cc1ccc2c(c1)c1c(n2CC#N)CCN(C)C1
output: 74

input: Fill in the recorded inhibition at 1 µM for this molecule, with human recombinant adrenergic α1D receptor (Homo sapiens, UniProt P25100) as test system: Cc1ccc2c(c1)c1c(n2CCNC(=O)C2CCCC2)CCN(C)C1
output: 66

input: Fill in the recorded inhibition at 1 µM for this molecule, with human recombinant adrenergic α1D receptor (Homo sapiens, UniProt P25100) as test system: C#CCn1c2c(c3cc(C)ccc31)CN(C)CC2
output: 57

input: Fill in the recorded inhibition at 1 µM for this molecule, with human recombinant adrenergic α1D receptor (Homo sapiens, UniProt P25100) as test system: CN1CCc2c(c3cc(Cl)ccc3n2CC(=O)OCc2ccccc2)C1
output: 55

input: Fill in the recorded inhibition at 1 µM for this molecule, with human recombinant adrenergic α1D receptor (Homo sapiens, UniProt P25100) as test system: CN1CCc2c(c3cc(Cl)ccc3n2CC(=O)OC(C)(C)C)C1
output: 13

---

System: human recombinant adrenergic α1D receptor (Homo sapiens, UniProt P25100)
Construct: expressed in transfected cells; host or cells: HEK-293 cells
Sequence (P25100 1-572): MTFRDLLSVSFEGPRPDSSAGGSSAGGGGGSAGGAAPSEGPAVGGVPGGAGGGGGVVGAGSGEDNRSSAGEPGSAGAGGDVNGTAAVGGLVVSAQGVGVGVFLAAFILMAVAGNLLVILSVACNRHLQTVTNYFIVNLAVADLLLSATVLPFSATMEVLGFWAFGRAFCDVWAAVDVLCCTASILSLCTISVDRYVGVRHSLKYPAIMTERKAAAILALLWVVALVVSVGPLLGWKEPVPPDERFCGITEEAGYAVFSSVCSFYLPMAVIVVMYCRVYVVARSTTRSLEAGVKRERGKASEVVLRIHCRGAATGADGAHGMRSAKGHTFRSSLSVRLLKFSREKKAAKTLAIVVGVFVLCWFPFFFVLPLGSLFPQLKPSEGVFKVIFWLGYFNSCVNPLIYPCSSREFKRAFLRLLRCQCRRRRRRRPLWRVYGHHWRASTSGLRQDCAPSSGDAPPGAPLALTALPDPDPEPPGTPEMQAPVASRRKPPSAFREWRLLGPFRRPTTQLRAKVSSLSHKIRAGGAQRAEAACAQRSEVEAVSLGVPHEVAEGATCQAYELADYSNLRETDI
Procedure details: Adrenergic α1D radioligand binding ([3H]Prozosin)
Protocol conditions: compound at 1 μM; HEK-293 cells; read-out: Adrenergic (1 μM) α1D, percent inhibition of specific binding
Reported property: inhibition at 1 µM (%)
Give your result in % as a bare value.

input: Quick one: inhibition at 1 µM of Cc1ccc2c(c1)c1c(n2CCC(=O)O)CCN(C)C1 ?
output: 6

input: Quick one: inhibition at 1 µM of CN1CCc2c(c3cc(Cl)ccc3n2CC(=O)NC2CCCC2)C1 ?
output: 18

input: Quick one: inhibition at 1 µM of Cc1ccc2c(c1)c1c(n2CCNC(=O)C2CCNCC2)CCN(C)C1 ?
output: 11

input: Quick one: inhibition at 1 µM of Cc1ccc2c(c1)c1c(n2CC(N)=O)CCN(C)C1 ?
output: 20

input: Quick one: inhibition at 1 µM of Cc1ccc2c(c1)c1c(n2CCO)CCN(C)C1 ?
output: 23

input: Quick one: inhibition at 1 µM of CN1CCc2c(c3cc(Cl)ccc3n2CC(=O)N(C)C)C1 ?
output: 10

input: Quick one: inhibition at 1 µM of Cc1ccc2c(c1)c1c(n2CCC(=O)Nc2ccccc2)CCN(C)C1 ?
output: 74

input: Quick one: inhibition at 1 µM of Cc1ccc2c(c1)c1c(n2CCNC(=O)C2CCCCC2)CCN(C)C1 ?
output: 64

input: Quick one: inhibition at 1 µM of Cc1ccc2c(c1)c1c(n2CCNC(=O)OCC(Cl)(Cl)Cl)CCN(C)C1 ?
output: 72

--- query ---
input: Quick one: inhibition at 1 µM of CCOC(=O)Cn1c2c(c3cc(Cl)ccc31)CN(C)CC2 ?
output: 50
